All figures here come from ChEMBL document CHEMBL1158830.

# Species: Homo sapiens
# assay_name: Plasma concentration in human
# Format: ADME, organism-based
# test_conditions: in vivo
Reported concentration by item:
Write the value in nM as a bare number.

Which concentration value is on record for C[C@H]1O[C@@H](O[C@H]2[C@@H](O)C[C@H](O[C@H]3[C@@H](O)C[C@H](O[C@H]4CC[C@@]5(C)[C@H](CC[C@@H]6[C@@H]5C[C@@H](O)[C@]5(C)[C@@H](C7=CC(=O)OC7)CC[C@]65O)C4)O[C@@H]3C)O[C@@H]2C)C[C@H](O)[C@@H]1O ?
0.6

Now let's try a different one.
Which concentration value is on record for C[C@H]1O[C@@H](O[C@H]2[C@@H](O)C[C@H](O[C@H]3[C@@H](O)C[C@H](O[C@H]4CC[C@@]5(C)[C@H](CC[C@@H]6[C@@H]5CC[C@]5(C)[C@@H](C7=CC(=O)OC7)CC[C@]65O)C4)O[C@@H]3C)O[C@@H]2C)C[C@H](O)[C@@H]1O ?
19.6

----------
# Test system: UACC-62
# assay_name: Cytotoxicity against human UACC62 cells after 48 hrs by SRB assay
# Type: functional, cell-based
# test_conditions: UACC-62, 48 h
assay_metric: pIC50
Note on pIC50: it is the negative log10 of concentration, concentration in mol/L.

Solved entries (count: 3):
Which pIC50 value is on record for COc1cc([C@@H]2c3cc4c(cc3[C@@H](O[C@@H]3O[C@@H]5CO[C@@H](C)O[C@H]5[C@H](O)[C@H]3O)[C@H]3COC(=O)[C@H]23)OCO4)cc(OC)c1O [ETOPOSIDE] ?
5.95

Which pIC50 value is on record for C[C@H]1O[C@@H](O[C@H]2[C@@H](O)C[C@H](O[C@H]3[C@@H](O)C[C@H](O[C@H]4CC[C@@]5(C)[C@H](CC[C@@H]6[C@@H]5C[C@@H](O)[C@]5(C)[C@@H](C7=CC(=O)OC7)CC[C@]65O)C4)O[C@@H]3C)O[C@@H]2C)C[C@H](O)[C@@H]1O [DIGOXIN] ?
7.53

Which pIC50 value is on record for C[C@]12CC[C@H](O)C[C@H]1CC[C@@H]1[C@@H]2CC[C@]2(C)[C@@H](C3=CC(=O)OC3)[C@@H](O)C[C@]12O [GITOXIGENIN] ?
5.55

More entries:
Which pIC50 value is on record for C[C@H]1O[C@@H](O[C@H]2[C@@H](O)C[C@H](O[C@H]3[C@@H](O)C[C@H](O[C@H]4CC[C@@]5(C)[C@H](CC[C@@H]6[C@@H]5CC[C@]5(C)[C@@H](C7=CC(=O)OC7)CC[C@]65O)C4)O[C@@H]3C)O[C@@H]2C)C[C@H](O)[C@@H]1O [DIGITOXIN] ?
7.47

Which pIC50 value is on record for C[C@]12CC[C@H](O)C[C@H]1CC[C@@H]1[C@@H]2C[C@@H](O)[C@]2(C)[C@@H](C3=CC(=O)OC3)CC[C@]12O [DIGOXIGENIN] ?
6.38

Which pIC50 value is on record for C[C@H]1O[C@@H](O[C@H]2[C@@H](O)C[C@H](O[C@H]3[C@@H](O)C[C@H](O[C@H]4CC[C@@]5(C)[C@H](CC[C@@H]6[C@@H]5CC[C@]5(C)[C@@H](C7=CC(=O)OC7)[C@@H](O)C[C@]65O)C4)O[C@@H]3C)O[C@@H]2C)C[C@H](O)[C@@H]1O [GITOXIN] ?
6.43

Which pIC50 value is on record for C[C@]12CC[C@H](O)C[C@H]1CC[C@@H]1[C@@H]2CC[C@]2(C)[C@@H](C3=CC(=O)OC3)CC[C@]12O [DIGITOXIGENIN] ?
6.46
